Tested on: tet operator sequence
Assay: β-galactosidase activity of a tetracycline-regulated promoter in transformed E. coli with revTetR, in the presence and absence of anhydrotetracycline (atc)
Assay type: cell-based, Escherichia coli
Settings: RevTetR isolate cultured in the absence of anhydrotetracycline (ATC)
Assay Readout: β-Galactosidase Activity, Cultured Without ATC
Hey, just send me the number, nothing else.

Reported β-Galactosidase Activity, Cultured Without ATC of TetRrevAtc4-22: revTetR(BD) R49H A56P V57L L60M (protein, Modified tetracycline repressor, revTetR(BD) R49H A56P V57L L60M) MSRLDKSKVINSALELLNEVGIEGLTTRKLAQKLGVEQPTLYWHVKNKHALLDALPLEIMARHHDYSLPAAGESWQSFLRNNAMSFRRALLRYRDGAKVHLGTRPDEKQYDTVETQLRFMTENGFSLRDGLYAISAVSHFTLGAVLEQQEHTAALTDRPAAPDENLPPLLREALQIMDSDDGEQAFLHGLESLIRGFEVQLTALLQIV : 80.2859

Switching to the query record.
Item: TetRrevAtc4-31: revTetR(BD) A50S D53Y A56G V57I H63Q (protein, Modified tetracycline repressor, revTetR(BD) A50S D53Y A56G V57I H63Q) MSRLDKSKVINSALELLNEVGIEGLTTRKLAQKLGVEQPTLYWHVKNKRSLLYGLGIEILARQHDYSLPAAGESWQSFLRNNAMSFRRALLRYRDGAKVHLGTRPDEKQYDTVETQLRFMTENGFSLRDGLYAISAVSHFTLGAVLEQQEHTAALTDRPAAPDENLPPLLREALQIMDSDDGEQAFLHGLESLIRGFEVQLTALLQIV | β-Galactosidase Activity, Cultured Without ATC: 65.039
